Molecular target: KRAS G12V (Homo sapiens, UniProt P01116, G12V)
Construct: 4 nM KRAS; aa1-188 containing the G12V, G12C, G12A or G12S amino acid substitution
Sequence (P01116 1-188 isoform P01116-2 G12V): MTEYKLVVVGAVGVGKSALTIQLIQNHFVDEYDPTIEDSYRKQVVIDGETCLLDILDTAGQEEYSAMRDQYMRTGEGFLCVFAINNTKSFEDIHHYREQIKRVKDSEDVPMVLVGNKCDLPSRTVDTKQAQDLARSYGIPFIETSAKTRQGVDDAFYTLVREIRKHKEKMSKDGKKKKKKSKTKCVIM
Assay: HTRF nucleotide exchange assay (NEA), KRAS G12V
Assay type: biochemical
Conditions: recombinant human KRAS G12V aa1-188, 4 nM; lowest class = % inhibition at 10 μM
test.readout: IC50

Quick note, IC50 for CC(C)(O)C1CCN(c2nc(OCC34CCCN3CCC4)nc3c(F)c(-c4cc(O)cc5ccccc45)ncc23)C1 (stereo not shown) landed at > 10 µM

* * *

Biological target: KRAS G12D (Homo sapiens, UniProt P01116, G12D)
Construct: Recombinant human RAS protein (2 nM)
Sequence (P01116 1-188 isoform P01116-2 G12D): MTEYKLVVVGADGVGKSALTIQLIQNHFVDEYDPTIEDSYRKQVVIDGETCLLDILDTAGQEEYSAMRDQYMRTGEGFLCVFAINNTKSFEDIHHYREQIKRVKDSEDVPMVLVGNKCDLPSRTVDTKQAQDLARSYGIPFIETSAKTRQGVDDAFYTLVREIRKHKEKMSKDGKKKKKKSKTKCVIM
Experiment: HTRF nucleotide exchange assay (NEA), KRAS G12D
Conditions: recombinant human KRAS G12D aa1-188, 2 nM; lowest class = % inhibition at 10 μM
pIC50: −log10 of the molar value.
Listed here are compounds together with their documented pIC50.

Please review the following examples before continuing.
INSERT INTO measurements (compound, tested_target, data_value) VALUES
  ('Oc1cc(-c2ncc3c(N4CCCCC4)nc(OCC45CCCN4CCC5)nc3c2F)c2ccccc2c1 [Example 34]', 'KRAS G12D (Homo sapiens, UniProt P01116, G12D)', '7.00 to 8.00'),
  ('OCC1CCN(c2nc(OCC34CCCN3CCC4)nc3c(F)c(-c4cc(O)cc5ccccc45)ncc23)CC1 [Example 79]', 'KRAS G12D (Homo sapiens, UniProt P01116, G12D)', '7.00 to 8.00'),
  ('N#CC1CCN(c2nc(OCC34CCCN3CCC4)nc3c(F)c(-c4cc(O)cc5ccccc45)ncc23)CC1 [Example 65]', 'KRAS G12D (Homo sapiens, UniProt P01116, G12D)', '5.00 to 7.00'),
  ('COCCCN(C)c1nc(OCC23CCCN2CCC3)nc2c(F)c(-c3cc(O)cc4ccccc34)ncc12 [Example 28]', 'KRAS G12D (Homo sapiens, UniProt P01116, G12D)', '5.00 to 7.00');

The measured pIC50 associated with CC1CN(c2nc(OCC34CCCN3CCC4)nc3c(F)c(-c4cc(O)cc5ccccc45)ncc23)CCC1O (stereo not drawn) [Example 68] reads 5.00 to 7.00

For record CN(c1nc(OCC23CCCN2CCC3)nc2c(F)c(-c3cc(O)cc4ccccc34)ncc12)C1CCOCC1 [Example 23] the listed pIC50 is 5.00 to 7.00

Lookup result for O=C1CN(c2nc(OCC34CCCN3CCC4)nc3c(F)c(-c4cc(O)cc5ccccc45)ncc23)CCCN1 [Example 14] ; measured pIC50: 7.00 to 8.00

Lookup result for Oc1cc(-c2ncc3c(N4CCC5COCC5C4)nc(OCC45CCCN4CCC5)nc3c2F)c2ccccc2c1 (stereo not drawn) [Example 51] ; measured pIC50: 5.00 to 7.00

Input Nc1nc2c(-c3ncc4c(N5CCCOCC5)nc(OC[C@@]56CCCN5C[C@H](F)C6)nc4c3F)cccc2s1 (relative stereo) [Example 94] . Output pIC50: 5.00 to 7.00

Reported pIC50 for Oc1cc(-c2ncc3c(N4CCn5ccnc5C4)nc(OCC45CCCN4CCC5)nc3c2F)c2ccccc2c1 [Example 60] was 5.00 to 7.00
